Target: T1, Human MMP-9 catalytic domain (BIOMOL, SE-244) (human, UniProt P14780 107-457, limits assumed)
T1 construct: domain: catalytic domain; also called Cat-huMMP-9; cat-huMMP-9
T1 sequence (P14780 107-457 limits assumed): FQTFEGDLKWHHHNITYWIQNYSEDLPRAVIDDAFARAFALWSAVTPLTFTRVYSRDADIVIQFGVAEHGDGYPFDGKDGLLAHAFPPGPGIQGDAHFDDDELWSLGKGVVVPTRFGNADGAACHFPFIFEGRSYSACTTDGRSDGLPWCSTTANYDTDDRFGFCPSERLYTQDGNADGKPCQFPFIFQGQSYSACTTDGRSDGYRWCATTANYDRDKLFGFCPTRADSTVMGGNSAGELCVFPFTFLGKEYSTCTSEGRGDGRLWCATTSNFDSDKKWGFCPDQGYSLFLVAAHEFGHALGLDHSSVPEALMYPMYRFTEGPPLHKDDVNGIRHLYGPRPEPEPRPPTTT
Experiment: Ki,app, enzyme inhibition assay (fluorogenic peptide substrate), medium-scale sFab
Reported pKi by item:
Reminder that pKi is minus the log10 of a molar concentration.

* M0301-A09 (Fab, V domains shown, sFab; variable domains only; also called M301-A09) VH: EVQLLESGGGLVQPGGSLRLSCAASGFTFSYYDMWWVRQAPGKGLEWVSVIYPSGGYTAYADSVKGRFTISRDNSKNTLYLQMNSLRAEDTAVYYCAKDRAYGDYVGWNGFDYWGQGTLVTVSS VL: DIQMTQSPATLSLSPGERATLSCRASQSISSFLAWYQQKPGQAPRLLIYDASYRATGIPARFSGSGSGTDFTLTISSLEPEDYAVYYCQQRGNWPITFGQGTRLEIK | 9.30

Which pKi is reported for this binder? M0299-A12 (Fab, V domains shown, sFab; variable domains only; also called M299-A12) VH: EVQLLESGGGLVQPGGSLRLSCAASGFTFSHYPMWWVRQAPGKGLEWVSYISSSGGGTFYADSVKGRFTISRDNSKNTLYLQMNSLRAEDTAVYYCAKDRAYGDYVGWNGFDYWGQGTLVTVSS VL: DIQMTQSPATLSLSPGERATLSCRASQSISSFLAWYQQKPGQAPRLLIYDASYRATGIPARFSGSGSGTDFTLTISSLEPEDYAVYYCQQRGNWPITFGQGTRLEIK
9.22

Another binder: M0256-D11 (Fab, V domains shown, sFab; variable domains only; also called M256-D11; 539A-M0256-D11) VH: EVQLLESGGGLVQPGGSLRLSCAASGFTFSHYDMWWVRQAPGKGLEWVSVIYSSGGPTFYADSVKGRFTISRDNSKNTLYLQMNSLRAEDTAVYYCAKDRAYGDYVGWNGFDYWGQGTLVTVSS VL: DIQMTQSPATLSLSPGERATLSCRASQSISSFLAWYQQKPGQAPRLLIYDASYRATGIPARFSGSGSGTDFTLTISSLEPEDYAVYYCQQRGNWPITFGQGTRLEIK
9.52

Another binder: M0275-E12 (Fab, V domains shown, sFab; variable domains only; also called M275-E12) VH: EVQLLESGGGLVQPGGSLRLSCAASGFTFSHYDMWWVRQAPGKGLEWVSVIYSSGGFTGYADSVKGRFTISRDNSKNTLYLQMNSLRAEDTAVYYCAKDRAYGDYVGWNGFDYWGQGTLVTVSS VL: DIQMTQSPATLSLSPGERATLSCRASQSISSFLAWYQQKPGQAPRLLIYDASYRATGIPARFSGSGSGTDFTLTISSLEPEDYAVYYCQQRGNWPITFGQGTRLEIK
9.40
